System: HEK293
Assay: cells
Type: functional, cell-based
Conditions: Homo sapiens
Activity calls are given as the source filed them. Rule as the data show it: actives have a measured IC50 and inactives only a lower limit.
Would you kindly list IC50 for each of these molecules?

Returns the measured IC50 for the input molecule. Input: `O=C(Nc1ccc(Cl)cn1)c1ccc(Br)c(S(=O)(=O)N2CCCCC2)c1`
7.73 µM (active)

Data request, read-out IC50, for COCC(C)n1c(C)cc(C(=O)COc2ccc(C)nc2[N+](=O)[O-])c1C (stereo not given)
6.88 µM (active)

Reported IC50, molecule `Cc1ccc(NS(=O)(=O)c2ccc3c(c2)C(=O)c2ccccc2C3=O)c(C)c1` : ____
7.68 µM (active)

Return reported IC50; argument: `COc1ccccc1-c1nc(C#N)c(N2CCN(c3cccc(Cl)c3)CC2)o1`
18.5 µM (active)

Which value of IC50 has been reported for `COc1ccc(CNC(=O)c2ccc3ccccc3n2)cc1OC` in the records?
14.5 µM (active)
